System: Macrophage colony-stimulating factor 1 receptor (Homo sapiens, UniProt P07333) | Read-out: IC50 | Origin: multiple publications

Please review the entries below; each comes with its answer.
- CC(C)(C)OC(=O)[C@@H]1CC(NCc2ccc(-c3cnc(N)c(NCc4c(Cl)cccc4Cl)n3)cc2)CCN1 (stereo partly drawn): < 0.1 µM
- COc1ccc(F)c(C(=O)c2c[nH]c3ncccc23)c1: ≤ 10 µM
- OC(c1cccc(OC(F)F)c1)c1c[nH]c2ncc(Br)cc12 (stereo not drawn): ≤ 10 µM
- COc1cc(Cc2c[nH]c3ncccc23)ccc1OCc1ccc(Cl)cc1: ≤ 10 µM
- CS(=O)(=O)Nc1cccc(-c2cnc3[nH]cc(C(=O)c4cc(NS(=O)(=O)C5CCCCC5)ccc4F)c3c2)c1: ≤ 10 µM

Let us move to another entry and its IC50.
Prompt: Reported IC50, compound Cc1cccc(C(=O)Nc2cccc([C@@H](C)Oc3cncc(Cl)c3)c2)c1 : ____
Completion: 0.051 to 0.5 µM

###

pIC50: −log10 of the molar value.
System: UniProt:P07333 | Read-out: pIC50 | Origin: multiple publications

Please review the entries below; each comes with its answer.
- N#Cc1cc2cnc(Nc3ccc(N4CCC(O)CC4)c(F)c3)nc2n(C2CCCC2)c1=O: 9.00
- O=C(c1ccc(NC2CCC(F)(F)CC2)nc1Cl)c1c[nH]c2ncnc(NCC(F)(F)F)c12: > 7.00
- COc1cc2nccc(Oc3cnc(NC(=O)c4cn(C5CCOCC5)cc(-c5ccc(C)cc5)c4=O)nc3)c2cc1OC: > 6.70
- c1cc(Nc2ccc(N3CCCCC3)cc2)c2cc[nH]c2n1: ≥ 5.00
- CCCS(=O)(=O)Nc1ccc(F)c(C(=O)c2c[nH]c3ncc(-c4cccc(S(=O)(=O)NC)c4)cc23)c1F: ≥ 5.00

Prompt: Reported pIC50, compound O=C(c1c(F)ccc(OCc2ccccc2)c1F)c1c[nH]c2ncccc12 : ____
Completion: ≥ 5.00

Prompt: What do you have for Fc1nc(Nc2ccc(C3CC3)nc2)ccc1Cc1c[nH]c2ncnc(C3CC3)c12 ?
Completion: > 7.00

Prompt: What do you have for CCc1ccc(Nc2ccc(C(=O)c3c[nH]c4ncnc(NCCOC)c34)c(F)n2)cn1 ?
Completion: > 8.00

Prompt: What do you have for O=C(c1ccc(NCc2cccs2)nc1)c1c[nH]c2ncccc12 ?
Completion: ≥ 5.00

Prompt: What do you have for CC(C)c1ncc(NC(=O)c2cc(NC(=O)c3cc(F)cc(C(F)(F)F)c3)ccc2Cl)s1 ?
Completion: 7.89

###

System: Macrophage colony-stimulating factor 1 receptor (Homo sapiens) | Read-out: IC50 | Origin: multiple publications

Please review the entries below; each comes with its answer.
• Cc1cccc(C(=O)Nc2cccc([C@H](C)Oc3cc(Cl)cnc3N)c2)c1 = ≤ 50 nM
• Nc1ncnc2[nH]cc(C(=O)c3ccc(Nc4ccc(C5CC5)nc4)nc3F)c12 = < 10 nM
• COc1ccc(Nc2ccc(C(=O)c3c[nH]c4ncnc(NC5CCCCC5)c34)c(F)n2)cn1 = < 100 nM

Prompt: Reported IC50, molecule O=C(c1ccc(NCc2ccccc2)nc1)c1c[nH]c2ncccc12 : ____
Completion: ≤ 10000 nM

Prompt: What do you have for N#Cc1cc2cnc(Nc3ccc(S(=O)(=O)N4CCC(O)CC4)cc3)nc2n(C2CCCC2)c1=O ?
Completion: 2.5 nM

Prompt: What do you have for CN(C)S(=O)(=O)Nc1ccc(F)c(C(=O)c2c[nH]c3nccc(Cl)c23)c1F ?
Completion: ≤ 10000 nM

Prompt: What do you have for O=C(c1cccc(O)c1F)c1c[nH]c2ncc(Br)cc12 ?
Completion: ≤ 10000 nM

Prompt: What do you have for CN(C)C1CCc2ccc(Nc3ncc4cc(C#N)c(=O)n(C5CCCC5)c4n3)cc2C1 (stereo not drawn) ?
Completion: 3 nM

Prompt: What do you have for Cc1nc(NC(=O)N2CCOC(C)(C)C2=O)ccc1Oc1ccnc(-c2cnn(C)c2)c1 ?
Completion: 52.2 nM

Prompt: What do you have for CCCS(=O)(=O)Nc1ccc(F)c(C(=O)c2c[nH]c3ncc(C#CCOC)cc23)c1F ?
Completion: ≤ 10000 nM

Prompt: What do you have for CCCCNC(=O)Nc1cccc(Cc2c[nH]c3ncc(-c4cccnc4)cc23)c1 ?
Completion: ≤ 10000 nM

Prompt: What do you have for CCCS(=O)(=O)Nc1cccc(C(=O)c2c[nH]c3ncc(-c4cccnc4)cc23)c1 ?
Completion: ≤ 10000 nM

###

pIC50: −log10 of the molar value.
System: Macrophage colony-stimulating factor 1 receptor (Homo sapiens) | Read-out: pIC50 | Origin: multiple publications

Please review the entries below; each comes with its answer.
• N#Cc1cc2cnc(Nc3cccc(S(N)(=O)=O)c3)nc2n(C2CCCC2)c1=O = 7.46
• OC(c1c(F)ccc(OC(F)F)c1F)c1c[nH]c2ncc(Br)cc12 (centres unmarked) = ≥ 5.00
• CC(C)N1CCOc2c(F)cc(-c3nc(Nc4ccc(N5CCN(C(=O)CN(C)C)CC5)cn4)ncc3F)cc21 = 6.28
• Fc1cc(Cc2c[nH]c3ncc(Cl)cc23)c(Cl)cc1OCc1cccnc1 = ≥ 5.00
• CC1CN(c2cccc(Nc3ncc4c(=O)c(C(N)=O)cn(-c5ccc6c(c5)CCC6)c4n3)c2)CC(C)N1 (centres unmarked) = 9.29
• Cc1nn(C)cc1-c1cc(Oc2cc(F)c(NC(=O)C3(C(=O)Nc4ccc(F)cc4)CC3)cc2F)ccn1 = > 5.70

Prompt: Lab note: need pIC50 for CC(=O)Nc1cc(Oc2ccc(NC(=O)N3CCC(C)(C)C3=O)nc2C)ccn1 on Macrophage colony-stimulating factor 1 receptor (Homo sapiens), anyone have it?
Completion: 7.08

Prompt: What do you have for CCCS(=O)(=O)Nc1ccc(F)c(C(=O)c2c[nH]c3ncc(-c4cnn(C)c4)cc23)c1 ?
Completion: ≥ 5.00

Prompt: What do you have for COc1cc2nccc(Oc3ccc(NC(=O)c4cn(C(C)C)nc(-c5ccc(F)cc5)c4=O)cn3)c2cc1OC ?
Completion: 7.24

Prompt: What do you have for COc1cc(Cc2c[nH]c3ncccc23)ccc1OCc1ccc(C(F)(F)F)cc1 ?
Completion: ≥ 5.00

###

System: Macrophage colony-stimulating factor 1 receptor (Homo sapiens, UniProt P07333) | Read-out: IC50 | Origin: multiple publications

- N#Cc1cc2cnc(Nc3ccc4c(c3)NC(=O)C4)nc2n(C2CCCC2)c1=O: < 1 nM
- Fc1nc(NCc2ccc(N3CCOCC3)nc2)ccc1Cc1c[nH]c2ncncc12: ≤ 10000 nM
- COc1ccc(Nc2ccc(Cc3c[nH]c4ncc(C)cc34)c(F)n2)cn1: < 10 nM

Prompt: Reported IC50, compound CC(C)N1CCOc2c(F)cc(-c3nc(Nc4ccc(N5CCC(N(C)C)CC5)nc4)ncc3F)cc21 : ____
Completion: 40 nM

Prompt: What do you have for COc1ncc(-c2cnc3[nH]cc(C(=O)c4c(F)ccc(NS(=O)(=O)C5CCCCC5)c4F)c3c2)cn1 ?
Completion: ≤ 10000 nM

Prompt: What do you have for COCCOc1ccc(F)c(Cc2c[nH]c3ncc(Cl)cc23)c1Cl ?
Completion: ≤ 10000 nM

###

System: Macrophage colony-stimulating factor 1 receptor (Homo sapiens) | Read-out: IC50 | Origin: multiple publications

• COc1ncc(-c2cnc3[nH]cc(C(=O)c4c(F)ccc(NS(=O)(=O)c5cc(F)ccc5F)c4F)c3c2)cn1 = ≤ 10 µM

Prompt: Reported IC50, compound C[C@H](NCc1cccc(-c2cnc(N)c(NCc3c(Cl)cccc3Cl)n2)c1)C(=O)OC(C)(C)C : ____
Completion: 1 to 5 µM

Prompt: What do you have for CCOc1ccc(Nc2ccc(C(=O)c3c[nH]c4ncnc(C5CC5)c34)c(F)n2)cn1 ?
Completion: < 0.1 µM

###

System: Macrophage colony-stimulating factor 1 receptor (Homo sapiens) | Read-out: IC50 | Origin: multiple publications

Please review the entries below; each comes with its answer.
- COc1cc2nccc(Oc3cnc(NC(=O)c4cn(C5CC5)cc(-c5ccc(F)cc5)c4=O)nc3)c2cc1OC: 0.093 µM
- NC(=O)c1cccc(-c2cnc3[nH]cc(C(=O)c4ccc(O)cc4F)c3c2)c1: ≤ 10 µM
- COc1cc(C(OC)c2c[nH]c3ncccc23)ccc1OCc1ccc(Cl)cc1 (stereo not shown): ≤ 10 µM
- COc1cc(Nc2ncc(Cc3c[nH]c4ncc(C)cc34)cn2)ccc1F: < 0.1 µM
- COc1cc(CNc2ccc(Cc3c[nH]c4ncncc34)c(F)n2)cc(OC)c1OC: ≤ 10 µM
- Cc1nc(COc2ccc(F)c(C(=O)c3c[nH]c4ncc(Cl)cc34)c2F)c(C)o1: ≤ 10 µM

Let us move to another entry and its IC50.
Prompt: Reported IC50, molecule CCCCN(C)C(=O)Nc1ccc(F)c(Cc2c[nH]c3ncc(Cl)cc23)c1F : ____
Completion: ≤ 10 µM
